test: qHTS drug screen for cell cycle checkpoint inhibitors in PARPi-resistant BRCA-mutant ovarian cancer cell lines. (AID 1963452); settings: PEO1/OlaR viability, CellTiter-Glo luminescence, 96 h; measured here: PEO1 parental Z-AUC; stronger effect = lower value
Mark T only when Z-AUC stays strictly below -0.1. Values equal to the cut-off are F.

[[record]]
compound_structure_string = "CCOC(=O)CCNc1cc(N2CCc3ccccc3CC2)nc(-c2ccccn2)n1"
class_assignment = "F"

[[record]]
compound_structure_string = "CC1=C(c2ccc(O)cc2)[C@H](c2ccc(OCCN3CCCCC3)cc2)Oc2cc(O)ccc21"
class_assignment = "F"

[[record]]
compound_structure_string = "COc1ccccc1C(=O)Nc1cc2c(cc1N1CCNC[C@H]1C)n(C)c(=O)n2C"
class_assignment = "T"

[[record]]
compound_structure_string = "c1ccc(-c2cc(CCC3CCNCC3)c3ccccc3n2)cc1"
class_assignment = "F"

[[record]]
compound_structure_string = "Cc1ccc(Nc2cc(N[C@@H]3CCCC[C@@H]3N)nnc2C(N)=O)nc1C"
class_assignment = "T"

[[record]]
compound_structure_string = "O=C(NO)c1cnc(NC2(c3ccccc3)CC2)nc1"
class_assignment = "F"

[[record]]
compound_structure_string = "C[C@@H](OC[C@@]1(c2ccccc2)CC[C@]2(CCC(=O)N2)CN1)c1cc(C(F)(F)F)cc(C(F)(F)F)c1"
class_assignment = "T"

[[record]]
compound_structure_string = "Cn1cc(C2=C(c3cn(C)c4cc([N+](=O)[O-])ccc34)C(=O)NC2=O)c2ccccc21"
class_assignment = "T"

[[record]]
compound_structure_string = "Cc1cc(OCCCc2c3n(c4c(-c5c(C)nn(C)c5C)c(Cl)ccc24)[C@H](C)CN(c2cn(C)c4ccc(C(=O)O)cc24)C3=O)cc(C)c1Cl"
class_assignment = "F"

[[record]]
compound_structure_string = "[O-][n+]1cccc(-c2nc3c(Cl)cccc3cc2[C@@H](Nc2ncnc3cccnc23)C(F)(F)F)c1"
class_assignment = "F"

[[record]]
compound_structure_string = "Cc1c(CN2CCC(Nc3ncnc4sc(CC(F)(F)F)cc34)CC2)ccc2c1cc(C#N)n2Cc1cn[nH]c1"
class_assignment = "T"

[[record]]
compound_structure_string = "CCCS(=O)(=O)c1nc(NC2CC2)cc(-c2ccc3c(ccn3C3CC(C)(C)NC(C)(C)C3)c2)n1"
class_assignment = "T"

[[record]]
compound_structure_string = "NC(=O)c1ccc2nc(-c3ccc(C4(N)CCC4)cc3)c(-c3ccccc3)n2n1"
class_assignment = "T"

[[record]]
compound_structure_string = "O=C(NO)C1(CS(=O)(=O)c2ccc(Oc3ccc(Cl)cc3)cc2)CCOCC1"
class_assignment = "F"

[[record]]
compound_structure_string = "CO[C@H]1C[C@@H]2CC[C@@H](C)[C@@](O)(O2)C(=O)C(=O)N2CCCC[C@H]2C(=O)O[C@H]([C@H](C)C[C@@H]2CC[C@@H](OCCO)[C@H](OC)C2)CC(=O)[C@H](C)/C=C(/C)[C@@H](O)[C@@H](OC)C(=O)[C@H](C)C[C@H](C)/C=C\\C=CC=C1C"
class_assignment = "F"

[[record]]
compound_structure_string = "N#Cc1cc2cc(CN3CCC(Nc4ncnc5sc(CC(F)(F)F)cc45)CC3)c(O)cc2n1Cc1cn[nH]c1"
class_assignment = "T"

[[record]]
compound_structure_string = "CC[C@@H]1[C@H](F)C(=O)N[C@@H]1COc1nccc2cc(C(N)=O)c(OC)cc12"
class_assignment = "T"


###

molecular target: Rap guanine nucleotide exchange factor 3 (Homo sapiens) (UniProt O95398); test: Counterscreen qHTS for antagonist of cAMP-regulated guanine nucleotide exchange factor 3 (EPAC1) (AID 1645888); settings: Rap1B-BODIPY-GDP nucleotide exchange, fluorescence; series mostly up to 154 µM;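 note: fluorescence loss as bound BODIPY-GDP is released from Rap1B; % of control where 0% means no effect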
Sequence (O95398 whole entry, looked up): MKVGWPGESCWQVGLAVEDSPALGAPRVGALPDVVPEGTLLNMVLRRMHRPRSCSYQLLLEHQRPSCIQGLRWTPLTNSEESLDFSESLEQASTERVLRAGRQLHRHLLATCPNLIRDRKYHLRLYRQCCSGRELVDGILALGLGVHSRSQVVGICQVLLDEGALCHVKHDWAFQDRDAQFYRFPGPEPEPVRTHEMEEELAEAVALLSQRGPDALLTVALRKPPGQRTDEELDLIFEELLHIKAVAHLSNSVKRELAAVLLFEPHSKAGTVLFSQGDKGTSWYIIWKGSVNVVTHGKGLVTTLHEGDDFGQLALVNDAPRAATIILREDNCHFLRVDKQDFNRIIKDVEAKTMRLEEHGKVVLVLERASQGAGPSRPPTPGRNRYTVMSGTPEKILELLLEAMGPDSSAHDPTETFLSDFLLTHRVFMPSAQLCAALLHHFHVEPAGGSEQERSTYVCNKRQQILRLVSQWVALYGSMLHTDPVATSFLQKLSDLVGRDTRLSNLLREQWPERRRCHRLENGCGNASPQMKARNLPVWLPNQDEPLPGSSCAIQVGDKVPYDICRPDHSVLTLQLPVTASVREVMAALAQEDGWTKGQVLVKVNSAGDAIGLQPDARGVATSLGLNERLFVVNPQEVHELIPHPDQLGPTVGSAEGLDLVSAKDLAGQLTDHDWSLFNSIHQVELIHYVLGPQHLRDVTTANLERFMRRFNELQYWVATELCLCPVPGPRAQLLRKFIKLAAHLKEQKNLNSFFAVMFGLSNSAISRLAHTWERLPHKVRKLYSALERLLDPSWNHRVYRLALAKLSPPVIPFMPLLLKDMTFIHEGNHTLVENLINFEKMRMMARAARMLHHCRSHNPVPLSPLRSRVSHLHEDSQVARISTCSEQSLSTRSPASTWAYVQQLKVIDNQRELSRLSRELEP
Results filed as inconclusive are left out. Calls of active or inactive are those of the source. Calls follow the shape of the dose curve; as a rule, active = well fitted inhibition curve with a large enough effect; inconclusive = small, poorly fitted or top-dose-only effect; inactive = no such curve, though single readings can be large or run the other way.
assay.metric: activity change, negative = inhibition

[[record]]
compound = "C=CCn1c(SCC(=O)Nc2sccc2C(N)=O)nc2sc(CC)cc2c1=O"
assay_metric = "activity change, negative = inhibition"
result_value = "-8.95% [at 30.8 µM] (inactive)"

[[record]]
compound = "COc1ccc(NC(=O)c2c[nH]n3c(=O)cc(C4CCN(C(=O)OC(C)(C)C)CC4)nc23)cc1Cl"
assay_metric = "activity change, negative = inhibition"
result_value = "inactive"

[[record]]
compound = "CC(=O)c1ccc(NC(=O)CSc2nc(Nc3ccccc3)nc(N3CCOCC3)n2)cc1"
assay_metric = "activity change, negative = inhibition"
result_value = "inactive"

[[record]]
compound = "COc1cccc(C2=NN(C(C)=O)C(c3cccs3)C2)c1 (stereo not given)"
assay_metric = "activity change, negative = inhibition"
result_value = "inactive"

[[record]]
compound = "C[C@@H]1CN([C@@H](C)CO)S(=O)(=O)c2ccc(Br)cc2O[C@H]1CN(C)Cc1ccccc1F"
assay_metric = "activity change, negative = inhibition"
result_value = "inactive"


###

test system: GB4; experiment: qHTS profiling for inhibitors of Plasmodium falciparum proliferation (AID 504749); note: nearly all actives have a fitted effect of over 60% in size; note: potency is the fitted concentration of half-maximal effect; settings: P. falciparum in erythrocytes, SYBR Green DNA, 72 h; series mostly up to 12.8 µM
Records with an inconclusive call do not appear. Activity calls are given as the source filed them. The call rests on the fitted dose curve; in most records, active means well fitted inhibition curve with a large enough effect; inconclusive means small, poorly fitted or top-dose-only effect; inactive means flat fitted curve, though single readings scatter.
assay.metric: Potency

[[record]]
compound = "COc1cc(N[C@@H](C)CCCN)c2ncccc2c1"
result_value = "809 nM (active)"

[[record]]
compound = "CC(=O)[C@@H]1CC[C@@H]2[C@@H]3C[C@H](C)C4=CC(=O)CC[C@@]4(C)[C@H]3[C@H](O)C[C@]21C"
result_value = "inactive"

[[record]]
compound = "COc1c(O[C@H]2O[C@@H](CO)[C@@H](O)[C@@H](O)[C@@H]2O)cc2c(c1OC)-c1ccc(SC)c(=O)cc1[C@H](NC(C)=O)CC2"
result_value = "inactive"

[[record]]
compound = "O=C(O)[C@@H]1CCCN1"
result_value = "inactive"

[[record]]
compound = "COCC(=O)Nc1c(I)c(C(=O)NC[C@@H](O)CO)c(I)c(C(=O)N(C)C[C@@H](O)CO)c1I"
result_value = "inactive"

[[record]]
compound = "CC1CCC(C(C)C)C(=O)C1 (centres undefined)"
result_value = "inactive"

[[record]]
compound = "NC(C(=O)O)[C@@H]1CC(Cl)=NO1 (some centres undefined)"
result_value = "1200 nM (active)"

[[record]]
compound = "CC(=C(CCOP(=O)(O)O)SC(=O)c1ccccc1)N(C=O)Cc1cnc(C)nc1N"
result_value = "inactive"

[[record]]
compound = "NC[C@@H]1O[C@H](O[C@@H]2[C@H](O[C@@H]3O[C@H](CO)[C@@H](O)[C@@H]3O)[C@@H](O)[C@@H](N)C[C@H]2N)[C@@H](N)[C@H](O)[C@@H]1O"
result_value = "inactive"

[[record]]
compound = "O=C(Nc1ccccc1)OC[C@H](CN1CCCCC1)OC(=O)Nc1ccccc1"
result_value = "inactive"

[[record]]
compound = "CCN(CC)CCOC(=O)[C@@H](Cc1cccc2ccccc12)C[C@@H]1CCCO1"
result_value = "inactive"

[[record]]
compound = "COC(=O)N/N=C/C1=C[N+](=O)c2ccccc2[N+]1=O"
result_value = "inactive"

[[record]]
compound = "NS(=O)(=O)c1cc2c(cc1C(F)(F)F)N[C@H](Cc1ccccc1)NS2(=O)=O"
result_value = "inactive"

[[record]]
compound = "NC(CCC(=O)N[C@@H](CS)C(=O)NCC(=O)O)C(=O)O (some centres undefined)"
result_value = "6750 nM (active)"

[[record]]
compound = "CCC(CCC(C)C1CCC2C3CC=C4CC(O)CC[C@@]4(C)C3CC[C@@]12C)C(C)C (some centres undefined)"
result_value = "inactive"

[[record]]
compound = "C[C@H](O)Cn1cnc2c1c(=O)n(C)c(=O)n2C"
result_value = "inactive"

[[record]]
compound = "CC1(C)S[C@@H]2[C@H](NC(=O)[C@@H](N)c3ccccc3)C(=O)N2[C@H]1C(=O)O[C@H]1OC(=O)c2ccccc21"
result_value = "inactive"

[[record]]
compound = "CN[C@H]1[C@@H](O)[C@@H](NC)[C@@H]2O[C@@]3(O)C(=O)C[C@@H](C)O[C@H]3O[C@H]2[C@H]1O"
result_value = "inactive"

[[record]]
compound = "Nc1nc2ncc(CNc3ccc(C(=O)NC(CCC(=O)O)C(=O)O)cc3)nc2c(=O)[nH]1 (centres undefined)"
result_value = "inactive"


###

system: TAB165; test: qHTS profiling for inhibitors of Plasmodium falciparum proliferation (AID 504749); note: nearly all actives have a fitted effect of over 60% in size; details: P. falciparum in erythrocytes, SYBR Green DNA, 72 h; series mostly up to 12.8 µM
Inconclusive results are not listed. Active and inactive are the calls of the source. Calls follow the shape of the dose curve; as a rule, active = well fitted inhibition curve with a large enough effect; inconclusive = small, poorly fitted or top-dose-only effect; inactive = flat fitted curve, though single readings scatter.
Labels: active, inactive

[[record]]
compound = "CC[C@@H]1OC(=O)[C@H](C)[C@H](O[C@@H]2C[C@](C)(OC)[C@H](O)[C@H](C)O2)[C@H](C)[C@H](O[C@@H]2O[C@@H](C)C[C@@H](N(C)C)[C@@H]2O)[C@](C)(O)C[C@H](C)C(=NOCOCCOC)[C@H](C)[C@H](O)[C@]1(C)O"
class_assignment = "inactive"

[[record]]
compound = "C=Cc1c(C)c2cc3nc(cc4[nH]c(cc5nc(cc1[nH]2)C(C)=C5CCC(=O)O)c(CCC(=O)OC)c4C)[C@@]1(C)C3=CC=C(C(=O)OC)[C@H]1C(=O)OC (tested in a mixture with another compound)"
class_assignment = "active"

[[record]]
compound = "NS(=O)(=O)c1cc2c(cc1C(F)(F)F)N[C@H](Cc1ccccc1)NS2(=O)=O"
class_assignment = "inactive"

[[record]]
compound = "CC1C2CCC3C4CC=C5CC(N(C)C)CC[C@@]5(C)C4CC[C@@]32CN1C (some centres not stated)"
class_assignment = "inactive"

[[record]]
compound = "CN(C)CCc1c[nH]c2ccc(CC3COC(=O)N3)cc12 (configuration not stated)"
class_assignment = "inactive"

[[record]]
compound = "COc1ccccc1OC[C@H](O)CO"
class_assignment = "inactive"

[[record]]
compound = "CC(=O)[C@]1(O)CCC2C3C=C(Cl)C4=CC(=O)C5CC5[C@@]4(C)C3CC[C@]21C (some centres not stated)"
class_assignment = "inactive"

